study_target: D(4) dopamine receptor (Homo sapiens, UniProt P21917)
Sequence (P21917 whole entry): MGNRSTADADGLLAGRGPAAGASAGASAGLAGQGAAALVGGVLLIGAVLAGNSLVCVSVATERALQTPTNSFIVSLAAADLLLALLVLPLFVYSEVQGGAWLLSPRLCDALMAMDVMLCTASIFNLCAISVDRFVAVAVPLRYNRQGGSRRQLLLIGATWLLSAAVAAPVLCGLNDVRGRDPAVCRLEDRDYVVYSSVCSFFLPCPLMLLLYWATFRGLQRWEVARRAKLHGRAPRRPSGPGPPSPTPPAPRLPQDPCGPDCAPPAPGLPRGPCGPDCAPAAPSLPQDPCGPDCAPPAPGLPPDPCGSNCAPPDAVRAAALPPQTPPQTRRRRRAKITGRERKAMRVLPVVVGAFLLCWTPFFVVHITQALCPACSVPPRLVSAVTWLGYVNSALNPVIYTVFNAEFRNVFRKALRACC
experiment: Intrinsic activity against dopamine D4 receptor expressed in CHO cells by GTPgammaS assay
Format: functional, cell-based
pEC50: −log10 of the molar value.

{"input_smiles": "C1=C(c2ccccc2)CCN(Cc2cnn(-c3ccccc3)c2)C1", "pEC50": 8.02}

* * *

Quick record of Ki values for 5-hydroxytryptamine receptor 2A (Sus scrofa, UniProt P50129).

{"input_smiles": "COc1ccccc1N1CCN(Cc2cnn(-c3ccccc3)c2)CC1", "Ki [nM]": 1300}
{"input_smiles": "C1=C(c2ccccc2)CCN(Cc2cnn(-c3ccccc3)c2)C1", "Ki [nM]": 2100}

* * *

study_target: D(2) dopamine receptor (Homo sapiens, UniProt P14416)
Sequence (P14416 whole entry): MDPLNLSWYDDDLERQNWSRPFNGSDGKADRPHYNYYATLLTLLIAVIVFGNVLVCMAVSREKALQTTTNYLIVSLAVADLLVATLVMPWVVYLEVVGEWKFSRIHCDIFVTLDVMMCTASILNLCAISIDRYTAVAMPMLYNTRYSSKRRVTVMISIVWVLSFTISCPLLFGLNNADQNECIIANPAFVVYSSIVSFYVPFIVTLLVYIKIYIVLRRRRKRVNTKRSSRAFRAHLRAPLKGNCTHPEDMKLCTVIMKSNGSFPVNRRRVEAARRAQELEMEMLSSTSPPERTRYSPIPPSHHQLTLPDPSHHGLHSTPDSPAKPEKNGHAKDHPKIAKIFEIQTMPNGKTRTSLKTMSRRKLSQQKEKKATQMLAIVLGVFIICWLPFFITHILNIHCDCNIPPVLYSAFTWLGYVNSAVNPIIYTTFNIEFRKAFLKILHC
experiment: Intrinsic activity against dopamine D2(short) receptor assessed as [3H]thymidine uptake in CHO cells by mitogenesis assay
Assay type: functional, cell-based
pEC50: −log10 of the molar value.

{"input_smiles": "COc1ccccc1N1CCN(Cc2cnn(-c3ccccc3)c2)CC1", "pEC50": 9.66}
{"input_smiles": "C1=C(c2ccccc2)CCN(Cc2cnn(-c3ccccc3)c2)C1", "pEC50": 8.77}

* * *

study_target: D(2) dopamine receptor (Homo sapiens, UniProt P14416)
experiment: Displacement of [3H]spiperone from human cloned dopamine D2(long) receptor expressed in CHO cells
Format: cell-based
pKi: −log10 of the molar value.
test_readout: pKi

{"input_smiles": "c1ccc(N2CCN(Cc3cnn(-c4ccccn4)c3)CC2)cc1", "reading": 6.47}
{"input_smiles": "c1ccc(-n2cc(CN3CCN(c4ncccn4)CC3)cn2)cc1", "reading": 5.22}
{"input_smiles": "Cc1c(CN2CCN(c3ccccc3)CC2)cnn1-c1ccccc1", "reading": 6.20}
{"input_smiles": "Fc1ccccc1N1CCN(Cc2cnn(-c3ccccc3)c2)CC1", "reading": 7.20}

* * *

study_target: D(4) dopamine receptor (Homo sapiens, UniProt P21917)
Sequence (P21917 whole entry): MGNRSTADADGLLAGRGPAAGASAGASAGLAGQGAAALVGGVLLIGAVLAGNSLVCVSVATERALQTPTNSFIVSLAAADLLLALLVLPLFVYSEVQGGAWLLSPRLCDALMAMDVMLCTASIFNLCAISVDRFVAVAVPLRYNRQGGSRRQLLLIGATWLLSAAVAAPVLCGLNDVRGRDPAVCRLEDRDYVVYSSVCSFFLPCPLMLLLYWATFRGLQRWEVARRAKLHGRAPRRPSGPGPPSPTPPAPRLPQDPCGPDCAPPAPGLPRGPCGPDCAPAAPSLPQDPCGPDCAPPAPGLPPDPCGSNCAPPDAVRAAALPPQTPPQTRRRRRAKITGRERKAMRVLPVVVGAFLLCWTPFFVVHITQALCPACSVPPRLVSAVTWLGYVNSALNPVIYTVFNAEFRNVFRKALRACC
test_readout: log10 of Ki (log10 of the value in nM)

{"input_smiles": "Cc1c(CN2CCN(c3ccccc3)CC2)cnn1-c1ccccc1", "study_target": "D(4) dopamine receptor (Homo sapiens, UniProt P21917)", "test_readout": "log10 of Ki", "reading": 0.72}
{"input_smiles": "c1ccc(N2CCN(Cc3ccc(-n4cccn4)cc3)CC2)cc1", "study_target": "D(4) dopamine receptor (Homo sapiens, UniProt P21917)", "test_readout": "log10 of Ki", "reading": 1.30}
{"input_smiles": "c1ccc(-n2cc(CN3CCN(c4ncccn4)CC3)cn2)cc1", "study_target": "D(4) dopamine receptor (Homo sapiens, UniProt P21917)", "test_readout": "log10 of Ki", "reading": 2.49}
{"input_smiles": "COc1ccccc1N1CCN(Cc2cnn(-c3ccccn3)c2)CC1", "study_target": "D(4) dopamine receptor (Homo sapiens, UniProt P21917)", "test_readout": "log10 of Ki", "reading": -0.36}
{"input_smiles": "C1=C(c2ccccc2)CCN(Cc2cn(-c3ccccc3)nn2)C1", "study_target": "D(4) dopamine receptor (Homo sapiens, UniProt P21917)", "test_readout": "log10 of Ki", "reading": 0.51}
{"input_smiles": "Cc1nn(-c2ccccc2)cc1CN1CCN(c2ccccc2)CC1", "study_target": "D(4) dopamine receptor (Homo sapiens, UniProt P21917)", "test_readout": "log10 of Ki", "reading": 0.00}
{"input_smiles": "Fc1ccc(N2CCN(Cc3cnn(-c4ccccc4)c3)CC2)cc1", "study_target": "D(4) dopamine receptor (Homo sapiens, UniProt P21917)", "test_readout": "log10 of Ki", "reading": 0.46}
{"input_smiles": "c1ccc(N2CCN(Cc3cnn(-c4ccccn4)c3)CC2)cc1", "study_target": "D(4) dopamine receptor (Homo sapiens, UniProt P21917)", "test_readout": "log10 of Ki", "reading": 0.41}
{"input_smiles": "C1=C(c2ccccc2)CCN(Cc2cnn(-c3ccccc3)c2)C1", "study_target": "D(4) dopamine receptor (Homo sapiens, UniProt P21917)", "test_readout": "log10 of Ki", "reading": -0.23}
{"input_smiles": "COc1ccccc1N1CCN(Cc2cnn(-c3ccccc3)c2)CC1", "study_target": "D(4) dopamine receptor (Homo sapiens, UniProt P21917)", "test_readout": "log10 of Ki", "reading": -0.55}
